target: HLA-B*15:01; assay: IEDB peptide-MHC binding, purified MHC/direct/fluorescence; filed as Kd, often an IC50 or EC50 that approximates it; bounds were set here for any values at or beyond the usual limits of such assays; conditions: source organism: Giardia lamblia ATCC 50803
REPORTED METRIC: Kd (nM)
One number for each entry, in nM.

Each sequence below has a reported value. Please supply its Kd.
1. WSFLEDRVY
2. QTSTLYDFY

*A*
1: 42; 2: 1710

====

target: HLA-A*24:02; assay: IEDB peptide-MHC binding, purified MHC/competitive/radioactivity; filed as Kd, often an IC50 or EC50 that approximates it; bounds were set here for any values at or beyond the usual limits of such assays; conditions: source organism: Dengue virus 1 Brazil/97-11/1997
REPORTED METRIC: Kd (nM)
One number for each entry, in nM.

Looking up TWSIHAHHQW , I see its Kd listed as 1080

====

biological target: HLA-A*30:01; test: IEDB peptide-MHC binding, purified MHC/competitive/radioactivity; filed as Kd, often an IC50 or EC50 that approximates it; bounds were set here for any values at or beyond the usual limits of such assays; settings: source organism: Dengue virus 3 Sri Lanka/1266/2000
REPORTED METRIC: Kd (nM)
Numbers only, in nM.

Case VDTRTPRPMP , HLA-A*30:01, Kd recorded as 415

====

target: HLA-A*31:01; test: IEDB peptide-MHC binding, purified MHC/competitive/fluorescence; filed as Kd, often an IC50 or EC50 that approximates it; bounds were set here for any values at or beyond the usual limits of such assays; details: source organism: Lyssavirus rabies
REPORTED METRIC: Kd

Value of measured Kd for the entry RQMKSGGRF : ≥ 20 µM

====

molecular target: HLA-A*26:01; experiment: IEDB peptide-MHC binding, purified MHC/direct/fluorescence; filed as Kd, often an IC50 or EC50 that approximates it; bounds were set here for any values at or beyond the usual limits of such assays; settings: source organism: Mammarenavirus lassaense
REPORTED METRIC: Kd

GYAWIDFDI tested on HLA-A*26:01 gave Kd: ≥ 20 µM

====

molecular target: HLA-B*08:02; assay: IEDB peptide-MHC binding, purified MHC/direct/fluorescence; filed as Kd, often an IC50 or EC50 that approximates it; bounds were set here for any values at or beyond the usual limits of such assays; conditions: source organism: Burkholderia mallei ATCC 23344
REPORTED METRIC: Kd (nM)
Numbers only, in nM.

Note to self: Kd recorded for YARRYFYPL was 43

====

target: HLA-B*07:02; assay: IEDB peptide-MHC binding, purified MHC/competitive/fluorescence; bounds were set here for any values at or beyond the usual limits of such assays; conditions: source organism: Variola virus
REPORTED METRIC: pIC50
One number for each entry, as −log10 of the molar value.

pIC50 measured on RPVVLTGGT = 4.62

====

biological target: HLA-A*11:01; experiment: IEDB peptide-MHC binding, purified MHC/competitive/radioactivity; filed as Kd, often an IC50 or EC50 that approximates it; bounds were set here for any values at or beyond the usual limits of such assays; details: source organism: Dengue virus 4 Thailand/0348/1991
REPORTED METRIC: Kd

# Kd (sequence: TVMAFHLSTR ) is 69.4 nM
